Examples of substances with documented mean ±SEM tube number/well, single nucleotide assay 4A follow.
System: hTERT-HUVEC cells
Assay: Endothelial tube formation assay after liposomal transfection
Type: cell-based, human
Conditions: oligonucleotide 1 μM, DOTAP/DOPE, 4 h transfection, 3 h on Matrigel; non-treated control 60±1.8
parameter: mean ±SEM tube number/well, single nucleotide assay 4A (tube number/well)

{"substance": "5′-CCTCTGCACCTATTGGACCC-3′ (DNA, all phosphorothioate, methylation of C not given here; listed as Homo sapiens) [AS-1, human neuropeptide Y2-receptor mRNA antisense molecule]", "unit.label": "tube number/well", "quantitative.readout": 44.0}
{"substance": "5′-CCCAGGTTATCCACGTCTCC-3′ (DNA, all phosphorothioate, methylation of C not given here; listed as Homo sapiens) [AS-1 control, control oligonucleotide for AS-1, reference compound]", "unit.label": "tube number/well", "quantitative.readout": 49.3}
{"substance": "5′-GGCCACTGTTCTTTCTGACC-3′ (DNA, all phosphorothioate, methylation of C not given here; listed as Homo sapiens) [AS-3, human neuropeptide Y2-receptor mRNA antisense molecule]", "unit.label": "tube number/well", "quantitative.readout": 28}
{"substance": "5′-GTTTGTGGCCCGTATTGTTCC-3′ (DNA, all phosphorothioate, methylation of C not given here; listed as Homo sapiens) [AS-2, human neuropeptide Y2-receptor mRNA antisense molecule]", "unit.label": "tube number/well", "quantitative.readout": 70.3}
